Data origin: patent US20100184809A1

# ASSAY_DETAILS: Caco-2 permeability
# Assay type: in vitro ADME
# CONDITION_DESCRIPTION: human, apical to basolateral
RESULT_TYPE: Papp A→B at 2 h (×10⁻⁶ cm/s)

Consider the worked cases shown below.
{"COMPOUND": "Cc1nc(OCc2c(-c3c(Cl)cccc3Cl)noc2C(C)C)ccc1N(C)S(=O)(=O)c1ccc(C(=O)O)cc1", "Papp A→B at 2 h / ×10⁻⁶ cm/s": 30}
{"COMPOUND": "CC(C)c1onc(-c2c(Cl)cccc2Cl)c1COc1ccc(N(C)C(=O)c2ccc(C(=O)N(C)C)cc2)c(C(F)(F)F)n1", "Papp A→B at 2 h / ×10⁻⁶ cm/s": 46}
{"COMPOUND": "CC(C)c1onc(-c2c(Cl)cccc2Cl)c1COc1ccc(NC(=O)c2ccc(C(=O)O)cc2)c(C(F)(F)F)n1", "Papp A→B at 2 h / ×10⁻⁶ cm/s": 34}

(P) CC(C)c1onc(-c2c(Cl)cccc2Cl)c1COc1ccc(N(C)C(=O)c2ccc(C(=O)O)cc2)c(C(F)(F)F)n1
(Q) Cc1onc(-c2c(Cl)cccc2Cl)c1COc1ccc(NC(=O)c2cccc(C(=O)O)c2)cc1 [Compound C, reference compound]
I'd appreciate it if you could identify which of P and Q has the greater Papp A→B at 2 h. Let me know the label of the one you choose.
P
(P: 32 ×10⁻⁶ cm/s, Q: 0.6 ×10⁻⁶ cm/s)
